src = PubChem BioAssay AID504462

- Assay system: Cysteine protease ATG4B (Homo sapiens)
- Experiment summary: ATG4B protease inhibitors, primary screen, biochemical, fluorescence, uHTS (AID 504462)
- Measurement parameters: ATG4B cleavage of LC3-PLA2, NBD-HPC fluorescence, 1 h; at 8.33 µM; stronger effect = higher value
Hit rate of the full screen: of about 340,000 compounds, about 1,700 (0.5%) were called active. The sample as a whole holds a higher share of actives than the screen did.
Measured metric: inhibition (%)
Numbers only, in %.

Below: 3 compounds and their reported inhibition.
Compound: COc1cccc(N2C(=O)CN(Cc3ccccc3)C2=S)c1
Assay system: Cysteine protease ATG4B (Homo sapiens)
Measured metric: inhibition
Unit descriptor: %
Observed value: 25.8
--
Compound: NS(=O)(=O)c1ccc(CCNc2nc(C(F)(F)F)nc3ccccc23)cc1
Assay system: Cysteine protease ATG4B (Homo sapiens)
Measured metric: inhibition
Unit descriptor: %
Observed value: -2.12
--
Compound: C#CCOCCOCCOCCNc1nc(N2CCN(C(=O)CCCCCCCCCCNC(=O)[C@H]([C@@H](C)CC)n3cc(CCCCN=C(N)N)nn3)CC2)nc(N2CCN(C(=O)CCCCCCCCCCNC(=O)[C@H](CO)n3cc(CCCSC)nn3)CC2)n1
Assay system: Cysteine protease ATG4B (Homo sapiens)
Measured metric: inhibition
Unit descriptor: %
Observed value: 41.9

Give measured inhibition for every item shown.
1. COc1ccc(/C=N/NC(=O)C2CC2)c(OC)c1OC
2. Cc1ccccc1CCNC(=O)C1CCC(=O)N(Cc2ccc(Cl)cc2)C1 (centres undefined)
3. C#CCOCCOCCOCCNc1nc(N2CCN(C(=O)[C@H](CCCN=C(N)N)n3cc(C(N)[C@@H](C)CC)nn3)CC2)nc(N2CCN(C(=O)[C@H](CO)n3cc([C@@H](N)C(C)C)nn3)CC2)n1 (some centres undefined)
4. COc1ccc(/C=C2\CCc3ccccc3C2=O)c(OC)c1OC
5. ClC1(Cl)CC1CSc1ncn[nH]1 (centres undefined)

1: -2.43; 2: 0.05; 3: -2.36; 4: 41.9; 5: -3.17

Give measured inhibition for every item shown.
1. Cc1cc(N(C)C)cc(C)[n+]1[O-]
2. Cn1cc[n+](C)c1COc1ccc(C=O)cc1
3. O=C1/C(=C/c2cccs2)CCc2ccccc21

1
6.27
15.7
